experimental protocol: Protein binding in mice plasma using Rapid Equilibrium Dialysis
Format: in vitro ADME, CD1 mice
condition info: male, CD1, mouse, plasma, pH 7.4, CD1 mouse plasma, 37° C.
Please note: true (1) applies when fraction unbound at 5 h, 1 µM is 0.2 or greater, and false (0) applies otherwise.

compound | assigned class
Cc1nc2cc(C(C)N3CCN(c4ncc(S(C)(=N)=O)cn4)CC3)ccc2o1 (racemic) [Example 55] | true (1)
CCN=S(C)(=O)c1cnc(N2CCN(C(C)c3ccc4sc(C)nc4c3)CC2)nc1 (racemic) [Example 48] | false (0)
CN=S(C)(=O)c1cnc(N2CCN(C(C)c3ccc4scnc4c3)CC2)nc1 (single isomer, unassigned) [Example 37] | true (1)
CC(c1ccc2c(c1)OCC2)N1CCN(c2ncc(C(=O)N=S(C)(C)=O)cn2)CC1 (racemic) [Example 10] | false (0)
CN=S(C)(=O)c1ccc(N2CCN(C(C)c3ccc4sc(C)nc4c3)CC2)nc1 (racemic) [Example 47] | false (0)
CCS(=N)(=O)c1cnc(N2CCN(C(C)c3ccc4c(c3)OCC4)CC2)nc1 (racemic) [Example 3] | true (1)
CCN=S(C)(=O)c1cnc(N2CCN(C(C)c3ccc4scnc4c3)CC2)nc1 (racemic) [Example 27] | false (0)
CC(c1ccc2c(c1)OCC2)N1CCN(c2ccc(S(C)(=N)=O)cn2)CC1 (racemic) [Example 7] | true (1)
CC(c1ccc2scnc2c1)N1CCN(c2ccc(S(C)(=N)=O)cn2)CC1 (racemic) [Example 26] | false (0)
CC(c1ccc2c(c1)OCCC2)N1CCN(c2ncc(S(C)(=N)=O)cn2)CC1 (racemic) [Example 21] | true (1)
CCS(=N)(=O)c1cnc(N2CCN(C(C)c3ccc4scnc4c3)CC2)nc1 (racemic) [Example 23] | true (1)
CN=S(C)(=O)c1cnc(N2CCN(C(C)c3ccc4sc(C)nc4c3)CC2)nc1 (racemic) [Example 45] | true (1)
CC(c1ccc2scnc2c1)N1CCN(c2ncc(S(C)(=N)=O)cn2)CC1 (single isomer, unassigned) [Example 34] | true (1)
Cc1nc2cc(C(C)N3CCN(c4ncc(S(C)(=N)=O)cn4)CC3)ccc2s1 (racemic) [Example 42] | false (0)
CC(c1ccc2c(c1)OCC2)N1CCN(c2ncc(N=S(C)(C)=O)cn2)CC1 (racemic) [Example 9] | true (1)

====

Recorded fraction unbound at 5 h, 1 µM values for a group of compounds are listed next.
experimental protocol: Protein binding in mice plasma using Rapid Equilibrium Dialysis
Type: in vitro ADME, CD1 mice
condition info: male, CD1, mouse, plasma, pH 7.4, CD1 mouse plasma, 37° C.
measured property: fraction unbound at 5 h, 1 µM

compound | measured property | recorded result
CC(c1ccc2scnc2c1)N1CCN(c2ncc(S(C)(=N)=O)cn2)CC1 (racemic) [Example 22] | fraction unbound at 5 h, 1 µM | 0.248
Cc1nc2cc(C(C)N3CCN(c4ncc(S(C)(=O)=NC(C)C)cn4)CC3)ccc2s1 (racemic) | fraction unbound at 5 h, 1 µM | 0.0545
Cc1nc2cc(C(C)N3CCN(c4ncc(S(C)(=N)=O)cn4)CC3)ccc2s1 (single isomer, unassigned) [Example 51] | fraction unbound at 5 h, 1 µM | 0.0838
CC1Cc2ccc(C(C)N3CCN(c4ncc(S(C)(=N)=O)cn4)CC3)cc2O1 (racemic) | fraction unbound at 5 h, 1 µM | 0.222
COCCN=S(C)(=O)c1cnc(N2CCN(C(C)c3ccc4scnc4c3)CC2)nc1 (racemic) | fraction unbound at 5 h, 1 µM | 0.286
COCCN=S(C)(=O)c1cnc(N2CCN(C(C)c3ccc4c(c3)OCC4)CC2)nc1 (single isomer, unassigned) | fraction unbound at 5 h, 1 µM | 0.208
CC(c1ccc2scnc2c1)N1CCN(c2ncc3c(n2)CCS(=N)(=O)C3)CC1 (racemic) | fraction unbound at 5 h, 1 µM | 0.0848
CN=S(C)(=O)c1cnc(N2CCN(C(C)c3ccc4scnc4c3)CC2)nc1 (racemic) [Example 25] | fraction unbound at 5 h, 1 µM | 0.211
CC(c1ccc2c(c1)OCC2)N1CCN(c2ccc(S(C)(=N)=O)cc2)CC1 (racemic) | fraction unbound at 5 h, 1 µM | 0.21
CC(c1ccc2c(c1)OCC2)N1CCN(c2ncnc3c2CS(=N)(=O)C3)CC1 (stereo not shown) | fraction unbound at 5 h, 1 µM | 0.0779
